B1: ZNF511 (parent)
chain: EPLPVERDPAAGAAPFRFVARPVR

Variants of: B1
assay-details: protein stability index of a GFP-peptide fusion (GPS, HEK-293T) (PSI 1-6); higher = more stable;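 further: lentivirally expressed fusions sorted by FACS into six bins by GFP to DsRed ratio, PSI derived from sequencing read proportions per bin multiplied by bin number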
test-parameters: c terminus: a fixed tail appended
The label depends only on protein stability index: criterion met if it is at least 3, criterion not met if it is smaller.

See these solved cases before continuing.
variant-id: P15R
assigned-category: criterion met
//
variant-id: V5P
assigned-category: criterion not met
//
variant-id: R7H
assigned-category: criterion not met
//
variant-id: L3D
assigned-category: criterion not met
//
variant-id: A13E
assigned-category: criterion not met

Input: Check the entry `R7V` : does protein stability index equal or exceed 3?
Output: criterion not met

Input: Check the entry `P22F` : does protein stability index equal or exceed 3?
Output: criterion met

Input: Check the entry `E6T` : does protein stability index equal or exceed 3?
Output: criterion not met
